All values here come from ChEMBL document CHEMBL6127119.

Here, each record is paired with measured MRT inf data.
protocol-description: MRT (infinity) in CD-1 mouse at 10 mg/kg, iv measured for 24 hrs by UPLC analysis
Type: ADME, organism-based
measurement-setup: in vivo
# output: bare number, implied unit h

**Query** For CC(C)C[C@@H](N)C(=O)N[C@H]1C(=O)N[C@@H](CC(N)=O)C(=O)N[C@H]2C(=O)N[C@H]3C(=O)N[C@H](C(=O)N[C@H](C(=O)NCc4ccc(-c5ccc(CNC(=N)N)cc5)cc4)c4cc(O)cc(O)c4-c4cc3ccc4O)[C@H](O)c3ccc(c(Cl)c3)Oc3cc2cc(c3O[C@@H]2O[C@H](CO)[C@@H](O)[C@H](O)[C@H]2O[C@H]2C[C@](C)(N)[C@H](O)[C@H](C)O2)Oc2ccc(cc2Cl)[C@H]1O , what is its reported MRT inf?
**Result** 20.2

**Query** Query: MRT inf; subject: CC(C)C[C@@H](N)C(=O)N[C@H]1C(=O)N[C@@H](CC(N)=O)C(=O)N[C@H]2C(=O)N[C@H]3C(=O)N[C@H](C(=O)N[C@H](C(=O)O)c4cc(O)cc(O)c4-c4cc3ccc4O)[C@H](O)c3ccc(c(Cl)c3)Oc3cc2cc(c3O[C@@H]2O[C@H](CO)[C@@H](O)[C@H](O)[C@H]2O[C@H]2C[C@](C)(N)[C@H](O)[C@H](C)O2)Oc2ccc(cc2Cl)[C@H]1O
**Result** 0.56

* * *

Collected MIC values appear next to each entry.
Tested on: Acinetobacter baumannii
protocol-description: Antibacterial activity against Carbapenem-resistant Acinetobacter baumannii clinical isolate incubated for 16 to 24 hrs by CLSI based broth microdilution method
Assay type: functional
measurement-setup: time 16-24 hrs
Please reply with the bare figure in µg/mL and do not write the unit itself.

compound	MIC, µg/mL
CC(C)C[C@@H](N)C(=O)N[C@H]1C(=O)N[C@@H](CC(N)=O)C(=O)N[C@H]2C(=O)N[C@H]3C(=O)N[C@H](C(=O)N[C@H](C(=O)NCCc4ccc(-c5ccc(CN)cc5)cc4)c4cc(O)cc(O)c4-c4cc3ccc4O)[C@H](O)c3ccc(c(Cl)c3)Oc3cc2cc(c3O[C@@H]2O[C@H](CO)[C@@H](O)[C@H](O)[C@H]2O[C@H]2C[C@](C)(N)[C@H](O)[C@H](C)O2)Oc2ccc(cc2Cl)[C@H]1O	128
CCCCCCCCCC(=O)N[C@@H](Cc1c[nH]c2ccccc12)C(=O)N[C@@H](CC(N)=O)C(=O)N[C@@H](CC(=O)O)C(=O)N[C@@H]1C(=O)NCC(=O)N[C@@H](CCCN)C(=O)N[C@@H](CC(=O)O)C(=O)N[C@H](C)C(=O)N[C@@H](CC(=O)O)C(=O)NCC(=O)N[C@H](CO)C(=O)N[C@@H]([C@@H](C)CC(=O)O)C(=O)N[C@@H](CC(=O)c2ccccc2N)C(=O)O[C@@H]1C	128

**Query** For the compound shown here, CC(=O)NC[C@H]1CN(c2ccc(N3CCOCC3)c(F)c2)C(=O)O1 [LINEZOLID] , give the reported MIC.
**Result** 128

**Query** What MIC value was documented for this compound, CC(C)C[C@@H](N)C(=O)N[C@H]1C(=O)N[C@@H](CC(N)=O)C(=O)N[C@H]2C(=O)N[C@H]3C(=O)N[C@H](C(=O)N[C@H](C(=O)O)c4cc(O)c(CNCCCCCCCCN)c(O)c4-c4cc3ccc4O)[C@H](O)c3ccc(c(Cl)c3)Oc3cc2cc(c3O[C@@H]2O[C@H](CO)[C@@H](O)[C@H](O)[C@H]2O[C@H]2C[C@](C)(N)[C@H](O)[C@H](C)O2)Oc2ccc(cc2Cl)[C@H]1O ?
**Result** 128

* * *

In this section we review reported MIC values for a set of molecules.
Test system: Klebsiella pneumoniae
protocol-description: Antibacterial activity against Klebsiella pneumoniae clinical isolate incubated for 16 to 24 hrs by CLSI based broth microdilution method
Assay type: functional
measurement-setup: time 16-24 hrs

**Query** For Klebsiella pneumoniae, provide MIC of CC(C)C[C@H](C(=O)N[C@H]1C(=O)N[C@@H](CC(N)=O)C(=O)N[C@H]2C(=O)N[C@H]3C(=O)N[C@H](C(=O)N[C@H](C(=O)O)c4cc(O)cc(O)c4-c4cc3ccc4O)[C@H](O)c3ccc(c(Cl)c3)Oc3cc2cc(c3O[C@@H]2O[C@H](CO)[C@@H](O)[C@H](O)[C@H]2O[C@H]2C[C@](C)(N)[C@H](O)[C@H](C)O2)Oc2ccc(cc2Cl)[C@H]1O)N(C)Cc1ccc(-c2ccc(CCN)cc2)cc1 please.
**Result** > 128 µg/mL

**Query** Find the measured MIC: item CC(C)C[C@@H](N)C(=O)N[C@H]1C(=O)N[C@@H](CC(N)=O)C(=O)N[C@H]2C(=O)N[C@H]3C(=O)N[C@H](C(=O)N[C@H](C(=O)NCCc4ccc(-c5ccc(CN)cc5)cc4)c4cc(O)cc(O)c4-c4cc3ccc4O)[C@H](O)c3ccc(c(Cl)c3)Oc3cc2cc(c3O[C@@H]2O[C@H](CO)[C@@H](O)[C@H](O)[C@H]2O[C@H]2C[C@](C)(N)[C@H](O)[C@H](C)O2)Oc2ccc(cc2Cl)[C@H]1O , target or system Klebsiella pneumoniae.
**Result** > 128 µg/mL

**Query** Form field - read-out: MIC; system: Klebsiella pneumoniae; submitted item: CC(C)C[C@H](C(=O)N[C@H]1C(=O)N[C@@H](CC(N)=O)C(=O)N[C@H]2C(=O)N[C@H]3C(=O)N[C@H](C(=O)N[C@H](C(=O)O)c4cc(O)cc(O)c4-c4cc3ccc4O)[C@H](O)c3ccc(c(Cl)c3)Oc3cc2cc(c3O[C@@H]2O[C@H](CO)[C@@H](O)[C@H](O)[C@H]2O[C@H]2C[C@](C)(N)[C@H](O)[C@H](C)O2)Oc2ccc(cc2Cl)[C@H]1O)N(C)Cc1ccc(-c2ccc(CCNC(=N)N)cc2)cc1
**Result** > 128 µg/mL

* * *

protocol-description: Clearance in CD-1 mouse at 10 mg/kg, iv measured for 24 hrs by UPLC analysis
Format: ADME, organism-based
measurement-setup: in vivo
As shown below, each of these compounds has a reported clearance value.
API: value field is a number in mL/min/kg; no unit string.

**Query** // clearance lookup, key: CC(C)C[C@@H](N)C(=O)N[C@H]1C(=O)N[C@@H](CC(N)=O)C(=O)N[C@H]2C(=O)N[C@H]3C(=O)N[C@H](C(=O)N[C@H](C(=O)O)c4cc(O)cc(O)c4-c4cc3ccc4O)[C@H](O)c3ccc(c(Cl)c3)Oc3cc2cc(c3O[C@@H]2O[C@H](CO)[C@@H](O)[C@H](O)[C@H]2O[C@H]2C[C@](C)(N)[C@H](O)[C@H](C)O2)Oc2ccc(cc2Cl)[C@H]1O
**Result** 27.3

**Query** Fill blank: measured clearance of the compound CC(C)C[C@@H](N)C(=O)N[C@H]1C(=O)N[C@@H](CC(N)=O)C(=O)N[C@H]2C(=O)N[C@H]3C(=O)N[C@H](C(=O)N[C@H](C(=O)NCc4ccc(-c5ccc(CNC(=N)N)cc5)cc4)c4cc(O)cc(O)c4-c4cc3ccc4O)[C@H](O)c3ccc(c(Cl)c3)Oc3cc2cc(c3O[C@@H]2O[C@H](CO)[C@@H](O)[C@H](O)[C@H]2O[C@H]2C[C@](C)(N)[C@H](O)[C@H](C)O2)Oc2ccc(cc2Cl)[C@H]1O is ____.
**Result** 4.2

* * *

Tested on: Klebsiella pneumoniae
protocol-description: Antibacterial activity against Klebsiella pneumoniae clinical isolate incubated for 16 to 24 hrs by CLSI based broth microdilution method
Format: functional
measurement-setup: time 16-24 hrs
measured-quantity: MIC

given-smiles	tested-on	experimental-result
CN[C@H](CC(C)C)C(=O)N[C@H]1C(=O)N[C@@H](CC(N)=O)C(=O)N[C@H]2C(=O)N[C@H]3C(=O)N[C@H](C(=O)N[C@H](C(=O)O)c4cc(O)c(CNCCCCCCCCN)c(O)c4-c4cc3ccc4O)[C@H](O)c3ccc(c(Cl)c3)Oc3cc2cc(c3O[C@@H]2O[C@H](CO)[C@@H](O)[C@H](O)[C@H]2O[C@H]2C[C@](C)(N)[C@H](O)[C@H](C)O2)Oc2ccc(cc2Cl)[C@H]1O	Klebsiella pneumoniae	> 128 µg/mL

**Query** May I ask what MIC has been recorded for CC(C)C[C@@H](N)C(=O)N[C@H]1C(=O)N[C@@H](CC(N)=O)C(=O)N[C@H]2C(=O)N[C@H]3C(=O)N[C@H](C(=O)N[C@H](C(=O)NCCCCCCCCN)c4cc(O)cc(O)c4-c4cc3ccc4O)[C@H](O)c3ccc(c(Cl)c3)Oc3cc2cc(c3O[C@@H]2O[C@H](CO)[C@@H](O)[C@H](O)[C@H]2O[C@H]2C[C@](C)(N)[C@H](O)[C@H](C)O2)Oc2ccc(cc2Cl)[C@H]1O ?
**Result** > 128 µg/mL
